assayedSystem: T1, human galectin-10-His (human)
T1 construct: The last M of the tag may be Met1 of galectin-10; also called humanGal10-His; hGal10
T1 chain: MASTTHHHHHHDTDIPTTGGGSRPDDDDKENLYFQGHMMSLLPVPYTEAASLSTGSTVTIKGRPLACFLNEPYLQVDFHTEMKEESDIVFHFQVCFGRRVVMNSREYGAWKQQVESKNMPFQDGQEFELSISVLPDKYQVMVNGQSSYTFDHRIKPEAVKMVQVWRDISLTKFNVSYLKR
assayInfo: SPR Biacore T3000, scFv-human Fc captured
assayMetric: pKd
Bear in mind: pKd is minus log10 of a mol/L concentration; give just that figure.

Which pKd is listed for 10D02 scFv-human Fc (Fc fusion, also called 010D02; not shown: CH2-CH3 constant domains of human IgG1 (pUPEX50 scFv-Fc fusion vector)) scFv: EVQLVESGGGLVQPGGSLRVSCAASGFTFSSYYMSWVRQAPGKGLEWVSGIVTGGGRTHYTDSVKGRFTITRDNAKNTLYLQMNSLRPEDTALYYCARVNGVVTNYDYWGQGTQVTVSSGGGGSGGGGSGGGGSQAVLTQPPSVSGSPGKTVTISCAGTSSDVGYGNYVSWYQQLPGMAPKLLIYDVNKRASGITDRFSGSKSGNTASLTISGLQSEDEADYFCASYRSPNNVVFGQGTHLTVL ? 8.70
